These measurements were taken from patent US8247573B2.

Answer each item with its documented log10(EC50).
Biological target: KCNQ2/3 channels (Homo sapiens, UniProt O43525+O43526)
Assay: Fluorescence assay using a voltage-sensitive dye (fluorimetry)
Settings: CHO-K1 cells expressing KCNQ2/3; agonistic activity
// do not treat as linear: log10 of EC50, unit nM

A selection of reference data follows.
| COMPOUND | ASSAY SYSTEM | log10(EC50) |
| --- | --- | --- |
| O=C(Cc1cccs1)Nc1cccnc1SCCSc1cccc(C(F)(F)F)c1 [Example 20] | KCNQ2/3 channels (Homo sapiens, UniProt O43525+O43526) | 2.26 |
| O=C(CC1CCCCO1)Nc1cccnc1SCCS(=O)(=O)c1cccc(C(F)(F)F)c1 (stereo not drawn) [Example 39] | KCNQ2/3 channels (Homo sapiens, UniProt O43525+O43526) | 2.56 |

List log10(EC50) for every entry below, keeping the order given.
1. O=C(Nc1cccnc1SCCS(=O)(=O)c1cccc(C(F)(F)F)c1)C(F)(F)C1CCCCC1 [Example 68]
2. O=C(CC1CCCCC1)Nc1cccnc1SCCS(=O)(=O)c1cccc(C(F)(F)F)c1 [Example 2]
3. O=C(CCC1CCCCCC1)Nc1cccnc1SCCS(=O)(=O)c1cccc(C(F)(F)F)c1 [Example 58]
4. O=C(CC1CC2CCC1C2)Nc1cccnc1SCCS(=O)(=O)c1cccc(C(F)(F)F)c1 (stereo not drawn) [Example 62]

1.34
1.43
1.68
1.37
